The reported measurements were obtained from patent US8785486B2.

readout type: melting point (°C)

INSERT INTO results (compound, readout_value) VALUES
  ('N#Cc1c(-c2ccc(Sc3ccccc3)cc2)ccn2c(CC(F)(F)F)cnc12', 195.6);

A = CC(C)(O)c1ccc(Oc2ccc(-c3ccn4c(CC(F)(F)F)cnc4c3C#N)cc2)cc1
B = Cc1cc(Oc2ccc(-c3ccn4c(CCCC(F)(F)F)cnc4c3C#N)cc2F)ccn1
Which numeric melting point is bigger, that of A or that of B ? In your reply, give the label of the chosen option.
B
(B: 234.1 °C, A: 143.2 °C)

1 = N#Cc1c(N2CCC3(CCc4ccccc4O3)CC2)ccn2c(CC(F)(F)F)cnc12
2 = N#Cc1c(-c2ccc(N[C@H]3CC[C@H](O)CC3)c(Cl)c2)ccn2c(CC(F)(F)F)cnc12
3 = N#Cc1c(N2CCC(O)(c3ccccc3F)CC2)ccn2c(CC(F)(F)F)cnc12
Arrange these compounds by their melting point, starting with the largest number. List labels; respect the requested ordering.
3, 1, 2

I = N#Cc1c(-c2ccc(C(F)c3ccccc3)cc2)ccn2c(CC(F)(F)F)cnc12 (stereo not shown)
II = N#Cc1c(N2CCC(O)(c3ccccc3)CC2)ccn2c(CC(F)(F)F)cnc12
Select the item whose melting point value is smaller, choosing between I and II . In your reply, give the label of the chosen option.
I
(I: 173.4 °C, II: 272.1 °C)

1 = Fc1ccccc1N1CCN(Cc2ccn3c(CC(F)(F)F)cnc3c2Cl)CC1
2 = N#Cc1c(N2CCN(c3ncccn3)CC2)ccn2c(CC(F)(F)F)cnc12
Which numeric melting point is bigger, that of 1 or that of 2 ? In your reply, give the label of the chosen option.
2
(2: 239 °C, 1: 150.2 °C)

1 = N#Cc1c(-c2ccc(Oc3ccccc3F)cc2)ccn2c(CC(F)(F)F)cnc12
2 = FC(F)(F)Cc1cnc2c(Cl)c(N3CCC(c4ccccc4)CC3)ccn12
Which numeric melting point is bigger, that of 1 or that of 2 ? In your reply, give the label of the chosen option.
2
(2: 263.1 °C, 1: 177.9 °C)

P = FC(F)(F)Cc1cnc2c(Cl)c(-c3ccc(NC4CCOCC4)c(Cl)c3)ccn12
Q = CC(C)(O)c1ccccc1C1CCN(c2ccn3c(CC(F)(F)F)cnc3c2Cl)CC1
Select the item whose melting point value is smaller, choosing between P and Q . In your reply, give the label of the chosen option.
P

A = N#Cc1c(N2CCC3(CC2)OCc2ccccc23)ccn2c(CC(F)(F)F)cnc12
B = N#Cc1c(CN2CCC(F)(c3ccccc3)CC2)ccn2c(CC(F)(F)F)cnc12
Which numeric melting point is bigger, that of A or that of B ? In your reply, give the label of the chosen option.
A
(A: 212.9 °C, B: 145 °C)

I = N#Cc1c(-c2ccc(Oc3cccc(F)c3)cc2)ccn2c(CC(F)(F)F)cnc12
II = CCc1cnc2c(C#N)c(N3CCC(O)(c4ccccc4)CC3)ccn12
Which numeric melting point is bigger, that of I or that of II ? In your reply, give the label of the chosen option.
II

* * *

- target under test: human mGluR2 receptor (Homo sapiens)
- Construct: expressed in transfected cells; host or cells: CHO cells
- Sequence (Q14416 19-872): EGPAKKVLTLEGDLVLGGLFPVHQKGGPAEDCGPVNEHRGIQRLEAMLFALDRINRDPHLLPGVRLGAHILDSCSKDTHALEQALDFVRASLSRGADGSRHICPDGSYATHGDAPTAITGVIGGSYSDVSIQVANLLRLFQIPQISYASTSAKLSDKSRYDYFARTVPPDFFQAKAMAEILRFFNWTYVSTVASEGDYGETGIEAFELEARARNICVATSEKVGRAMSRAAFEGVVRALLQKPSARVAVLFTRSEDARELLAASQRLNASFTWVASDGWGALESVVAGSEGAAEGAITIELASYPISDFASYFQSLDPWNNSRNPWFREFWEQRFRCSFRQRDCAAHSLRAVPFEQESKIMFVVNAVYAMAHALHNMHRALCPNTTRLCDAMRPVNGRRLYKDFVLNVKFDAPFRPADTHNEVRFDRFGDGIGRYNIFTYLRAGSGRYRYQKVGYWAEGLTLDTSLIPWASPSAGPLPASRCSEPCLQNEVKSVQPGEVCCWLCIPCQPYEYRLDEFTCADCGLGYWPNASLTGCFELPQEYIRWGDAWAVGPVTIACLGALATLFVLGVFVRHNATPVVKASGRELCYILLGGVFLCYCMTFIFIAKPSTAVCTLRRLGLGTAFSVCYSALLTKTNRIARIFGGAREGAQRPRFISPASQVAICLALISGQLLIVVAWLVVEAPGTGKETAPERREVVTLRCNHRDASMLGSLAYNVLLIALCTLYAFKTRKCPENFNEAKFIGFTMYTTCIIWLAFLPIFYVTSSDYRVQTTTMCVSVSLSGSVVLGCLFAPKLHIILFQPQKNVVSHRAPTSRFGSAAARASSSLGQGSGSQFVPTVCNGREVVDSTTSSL
- experimental details: [35S]GTPγS binding assay (PAM assay) using membranes from cells transfected with the human mGluR2 receptor
- Assay type: biochemical
- test context: membranes of CHO cells with human mGluR2; glutamate at predetermined EC25 concentration; averages of duplicate values of 11-concentration response curves
readout type: GTPγS - hR2 PAM pEC50

INSERT INTO assay_data (compound, readout_type, readout_value) VALUES
  ('CCCc1cnc2c(C#N)c(N3CCN(c4nc(C)cc(C)n4)CC3)ccn12 [Example 14]', 'GTPγS - hR2 PAM pEC50', 6.19),
  ('N#Cc1c(-c2ccc(Oc3ccccc3)cc2)ccn2c(CC(F)(F)F)cnc12 [Example 80]', 'GTPγS - hR2 PAM pEC50', 6.73),
  ('N#Cc1c(-c2ccc(N3CCCCC3)cc2)ccn2c(CC(F)(F)F)cnc12 [Example 107]', 'GTPγS - hR2 PAM pEC50', 6.63),
  ('Cc1cc(C)nc(N2CCN(c3ccn4c(CC(F)(F)F)cnc4c3C#N)CC2)n1 [Example 34]', 'GTPγS - hR2 PAM pEC50', 6.35),
  ('CCc1cnc2c(C#N)c(N3CCC(c4ccccc4)CC3)ccn12 [Example 12]', 'GTPγS - hR2 PAM pEC50', 6.30),
  ('CCCc1cnc2c(C#N)c(N3CCC(c4ccccc4)CC3)ccn12 [Example 6]', 'GTPγS - hR2 PAM pEC50', 6.81),
  ('N#Cc1c(N2CCN(c3ncccn3)CC2)ccn2c(CCC3CC3)cnc12 [Example 55]', 'GTPγS - hR2 PAM pEC50', 5.96),
  ('N#Cc1c(-c2ccc(N3CCOCC3)c(Cl)c2)ccn2c(CC(F)(F)F)cnc12 [Example 110]', 'GTPγS - hR2 PAM pEC50', 5.67),
  ('CCCc1cnc2c(C#N)c(N3CCN(c4ccccc4)CC3)ccn12 [Example 15]', 'GTPγS - hR2 PAM pEC50', 6.01),
  ('N#Cc1c(N2CCN(c3ncccn3)CC2)ccn2c(CC(F)(F)F)cnc12 [Example 2]', 'GTPγS - hR2 PAM pEC50', 6.07);
